Hey, just so you know, these numbers are from patent US9073855B2.

assaySystem: GST-Bcl-2 (Homo sapiens)
Sequence (P10415 whole entry): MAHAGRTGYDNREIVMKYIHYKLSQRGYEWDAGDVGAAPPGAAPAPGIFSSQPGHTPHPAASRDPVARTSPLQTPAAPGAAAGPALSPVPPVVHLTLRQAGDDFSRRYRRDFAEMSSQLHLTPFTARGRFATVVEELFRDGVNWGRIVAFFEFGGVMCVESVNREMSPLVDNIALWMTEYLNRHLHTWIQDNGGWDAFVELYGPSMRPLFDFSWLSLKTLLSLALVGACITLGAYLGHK
methodSummary: TR-FRET binding assay, GST-Bcl-2 with F-Bak peptide probe
conditionParameters: TR-FRET; Bcl-XL Ki divided by Bcl-2 Ki
measuredMetric: Binding selectivity ratio (Bcl-XL Ki/Bcl-2 Ki)

compound	result
CC1(C)CCC(CN2CCN(c3ccc(C(=O)NS(=O)(=O)c4cnc(OCC5CCC(C)(O)CC5)c(Cl)c4)c(Oc4cccc5[nH]ncc45)c3)CC2)=C(c2ccc(Cl)cc2)C1 (stereo not shown) [Example 494]	>1556.6
CC1(C)CCC(CN2CCN(c3ccc(C(=O)NS(=O)(=O)c4cnc(OCC5(F)CCC(O)CC5)c(Cl)c4)c(Oc4cccc5[nH]ncc45)c3)CC2)=C(c2ccc(Cl)cc2)C1 (stereo not shown) [Example 518]	>254.6
CC1(C)CCC(CN2CCN(c3ccc(C(=O)NS(=O)(=O)c4ccc(NCC5(F)CCOCC5)c([N+](=O)[O-])c4)c(Oc4cccc5[nH]nnc45)c3)CC2)=C(c2ccc(Cl)cc2)C1 [Example 514]	>1041.3
CC1(C)CCC(CN2CCN(c3ccc(C(=O)NS(=O)(=O)c4cnc(OCC5(F)CCN(C6COC6)CC5)c(Cl)c4)c(Oc4cccc5[nH]ncc45)c3)CC2)=C(c2ccc(Cl)cc2)C1 [Example 528]	>366.9
CC1(C)CCC(CN2CCN(c3ccc(C(=O)NS(=O)(=O)c4cnc(OC[C@@H]5CN(C6CC6)CCO5)c(Cl)c4)c(Oc4cccc5[nH]ncc45)c3)CC2)=C(c2ccc(Cl)cc2)C1 [Example 504]	>549.9
CC1(C)CCC(CN2CCN(c3ccc(C(=O)NS(=O)(=O)c4cnc(OCC5COCCO5)c(Cl)c4)c(Oc4cccc5[nH]ncc45)c3)CC2)=C(c2ccc(Cl)cc2)C1 (stereo not shown) [Example 488]	>2345.9
CC1(C)CCC(CN2CCN(c3ccc(C(=O)NS(=O)(=O)c4ccc(OCC5(F)CCN(C6COC6)CC5)c(C#N)c4)c(Oc4cccc5[nH]ncc45)c3)CC2)=C(c2ccc(Cl)cc2)C1 [Example 534]	>4603.9
CC1(C)CCC(CN2CCN(c3ccc(C(=O)NS(=O)(=O)c4ccc(NC[C@H]5CN(C6CC6)CCO5)c([N+](=O)[O-])c4)c(Oc4cccc5[nH]cnc45)c3)CC2)=C(c2ccc(Cl)cc2)C1 [Example 530]	>7666.0
CC1(C)CCC(CN2CCN(c3ccc(C(=O)NS(=O)(=O)c4ccc(OCC5CCC6(CC5)COC6)c([N+](=O)[O-])c4)c(Oc4cccc5[nH]ncc45)c3)CC2)=C(c2ccc(Cl)cc2)C1 [Example 535]	>250.5
CC1(C)CCC(CN2CCN(c3ccc(C(=O)NS(=O)(=O)c4cnc(OCC5(F)CCC(C)(O)CC5)c(Cl)c4)c(Oc4cccc5[nH]ncc45)c3)CC2)=C(c2ccc(Cl)cc2)C1 (stereo not shown) [Example 512]	>1733.8
